# EXPERIMENTAL SYSTEM: Human immunodeficiency virus type 1 reverse transcriptase (Human immunodeficiency virus 1, UniProt Q72547)
# TEST SUMMARY: Inhibition of wild type HIV1 reverse transcriptase polymerase activity by scintillation counting assay
Parameter class (string): assigned from measured IC50. Ranges: group A (below 200 nM), group B (200 nM to below 700 nM), group C (700 nM or more)

Record excerpt, results attached:
[[record]]
molecule = "CN1CC(Cc2ccc(Cl)c(Oc3cccc(Br)c3)c2)=NNC1=O"
category = "group A"

[[record]]
molecule = "Cc1nc(Cc2ccc(Cl)c(Oc3cccc(Br)c3)c2)n[nH]c1=O"
category = "group B"

[[record]]
molecule = "Cn1c(Cc2ccc(Br)c(Oc3cc(Cl)cc(C#N)c3)c2F)n[nH]c1=O"
category = "group A"

[[record]]
molecule = "CC1OC(Cc2ccc(Cl)c(Oc3cccc(Br)c3)c2)=NNC1=O (stereo unspecified)"
category = "group A"

[[record]]
molecule = "O=c1[nH]nc(Cc2ccc(Cl)c(Oc3cccc(Br)c3)c2)s1"
category = "group B"


Which category does the recorded IC50 put `Cn1c(Cc2ccc(Br)cc2)n[nH]c1=O` in?
group C

Same again, this time with `Cn1c(Cc2ccc(Br)cc2F)n[nH]c1=O`
group C

Same again, this time with `CN(C)c1cc(Cc2ccc(Cl)c(Oc3cccc(Br)c3)c2)n[nH]c1=O`
group B

Same again, this time with `COc1c(Br)ccc(Cc2n[nH]c(=O)n2C)c1F`
group C

Same again, this time with `O=c1[nH]nc(Cc2ccc(Cl)c(Oc3cccc(Br)c3)c2)o1`
group C
